assay: Apparent permeability from basolateral to apical side of human Caco-2 cells at 150 uM in donor chamber after 3 hrs; format: ADME, cell-based; settings: read-out: permeability
PROPERTY: Papp B→A at 3 h, 150 µM
Returns: string containing the number followed by the unit.

If you can, please state the reported Papp B→A at 3 h, 150 µM value of CC(C)[C@H](N)C(=O)NCCCCCC(=O)O[C@@H](C[C@@H](Cc1ccccc1)C(=O)N[C@H]1c2ccccc2C[C@H]1OC(=O)CCCCCNC(=O)[C@@H](N)C(C)C)CN1CCN(Cc2cccnc2)C[C@H]1C(=O)NC(C)(C)C.O=C(O)C(F)(F)F.O=C(O)C(F)(F)F .
6.26 ×10⁻⁶ cm/s

Value source: ChEMBL document CHEMBL1140955
